Reference source for all entries: patent US11471460B2

System: breast adenocarcinoma cells
EXPERIMENT_SUMMARY: Viability of breast adenocarcinoma cells
Format: cell-based
APPLIED_CONDITIONS: Homo sapiens; breast adenocarcinoma cells; read-out: EC50
pEC50: −log10 of the molar value.
Hi there, I'd appreciate the recorded pEC50 for every entry that follows.

For each entry beneath this line, provide reported pEC50.
1. C1=Nc2ccccc2/C1=C/NNc1nc(Nc2ccccc2)nc(N2CCOCC2)n1
2. CCN(CCO)CCCC(C)Nc1ccnc2cc(Cl)ccc12 (centres unmarked) [HCQ, hydroxychloroquine]

Result:
1. < 5.00
2. < 5.00

* * *

Tested on: human foreskin fibroblasts
EXPERIMENT_SUMMARY: Proliferation/viability of human foreskin fibroblasts
Format: cell-based
APPLIED_CONDITIONS: Homo sapiens, Fibroblast
PROPERTY_MEASURED: EC50

Query: Output EC50 of CCN(CC)CCCC(C)Nc1ccnc2cc(Cl)ccc12 (stereo not shown)
Result: > 10 µM
